Where these numbers come from: the Human Domainome abundance scans (Beltran et al. 2025)

Assignment: determine reported abundance fitness for the given variants.
B1: WW domain-binding protein 4, residues 8 to 43; numbered along this chain, O75554 (parent)
chain: QPKKFCDYCKCWIADNRPSVEFHERGKNHKENVAKR

# Variants of: B1
# ASSAY_TEXT: abundance fitness (aPCA) (normalised: wild type 0, dead -1); higher = more abundant; growth selection in yeast, the domain comes from the species named
# MEASUREMENT_PARAMETERS: Homo sapiens
Give bare numbers.

Answered examples (4):
QPKKFCDYCKCWIADNRPSVEFHERGKNHKENVAKQ: -0.304
QPKKFCDYCKCWIADNRDSVEFHERGKNHKENVAKR: -0.388
QPKNFCDYCKCWIADNRPSVEFHERGKNHKENVAKR: -0.226
QPKKFCDYCKCWIADNRPCVEFHERGKNHKENVAKR: -0.516

Would you mind giving abundance fitness for every variant in the list below?
1. QPKKFCDYSKCWIADNRPSVEFHERGKNHKENVAKR
2. QPKKFCDYCKCWIADNVPSVEFHERGKNHKENVAKR
3. QPKKFCDYCKCWIADNRPSVEFHERGKNHKENLAKR

Outgoing:
-0.116
0.008
-0.205

Would you mind giving abundance fitness for every variant in the list below?
1. QPKKFCDYCKCWIADNCPSVEFHERGKNHKENVAKR
2. QPKKFCDYCKCWIADNPPSVEFHERGKNHKENVAKR
3. QPKKFCDLCKCWIADNRPSVEFHERGKNHKENVAKR
4. QPKKFCDYCKCWIADNRPSVEFHERGKCHKENVAKR

Outgoing:
[0.118, 0.253, -0.26, -0.097]

Would you mind giving abundance fitness for every variant in the list below?
1. QPKKFCDYCKCWIADTRPSVEFHERGKNHKENVAKR
2. QPKKFCDYCKCWIADNRPSVEFHNRGKNHKENVAKR

Outgoing:
1: 0.185; 2: -0.163

Would you mind giving abundance fitness for every variant in the list below?
1. QPKKFCDYCKCWIAGNRPSVEFHERGKNHKENVAKR
2. QPKKFCDYCYCWIADNRPSVEFHERGKNHKENVAKR
3. QPKKFCDYCKCWIADNRPSVEFHELGKNHKENVAKR
4. QPKKFCDYCKCWIADNRPSVEFIERGKNHKENVAKR
5. QPKKFCDYCKCWIADNRPSAEFHERGKNHKENVAKR
6. QPKKFCDYCDCWIADNRPSVEFHERGKNHKENVAKR

Outgoing:
1. -0.09
2. 0.002
3. -0.106
4. -0.884
5. 0.05
6. 0.061

Would you mind giving abundance fitness for every variant in the list below?
1. QPKKFCDYCKCWIADERPSVEFHERGKNHKENVAKR
2. QPKKFCDYCKCWIADNRPSVEFHERGKNHKTNVAKR
3. QPKKFCDYCKCWIADNRPSVEFHERGKNHKENVAKS

Outgoing:
1. 0.027
2. -0.259
3. -0.032
